- study.target: ALK protein (Homo sapiens)
- Construct: We studied the total ALK protein in the anaplastic large cell lymphoma cell line SR; host or cells: SR cells (human anaplastic large cell lymphoma); the other entry of the earlier key: NPM1 (P06748, Nucleophosmin)
- Sequence (Q9UM73 with tags, fused parts or gaps): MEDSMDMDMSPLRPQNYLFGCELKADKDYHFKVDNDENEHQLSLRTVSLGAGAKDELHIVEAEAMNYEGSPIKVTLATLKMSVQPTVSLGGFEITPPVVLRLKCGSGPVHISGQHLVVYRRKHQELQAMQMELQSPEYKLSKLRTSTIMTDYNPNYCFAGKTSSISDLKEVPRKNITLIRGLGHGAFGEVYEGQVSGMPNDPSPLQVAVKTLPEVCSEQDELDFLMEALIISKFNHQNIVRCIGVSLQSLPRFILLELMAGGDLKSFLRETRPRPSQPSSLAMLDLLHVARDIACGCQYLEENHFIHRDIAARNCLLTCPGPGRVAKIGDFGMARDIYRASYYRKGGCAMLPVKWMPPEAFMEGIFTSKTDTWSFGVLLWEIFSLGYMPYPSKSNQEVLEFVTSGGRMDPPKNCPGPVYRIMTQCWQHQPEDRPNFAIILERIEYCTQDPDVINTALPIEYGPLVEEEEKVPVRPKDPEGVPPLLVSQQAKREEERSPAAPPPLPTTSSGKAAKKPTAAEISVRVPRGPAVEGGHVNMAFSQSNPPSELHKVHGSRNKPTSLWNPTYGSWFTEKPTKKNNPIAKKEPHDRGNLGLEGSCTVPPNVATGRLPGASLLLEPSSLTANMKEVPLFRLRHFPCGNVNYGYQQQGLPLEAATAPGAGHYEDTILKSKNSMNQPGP
- method: Western blot of ALK protein degradation in SR cells
- Type: cell-based
parameter: concentration from which a degradation effect on ALK protein is shown (nM)
# output: bare number, implied unit nM

Given item CCc1cc2c(cc1N1CCC(N3CCN(C(=O)COc4cccc5c4C(=O)N(C4CCC(=O)NC4=O)C5=O)CC3)CC1)C(C)(C)c1[nH]c3cc(C#N)ccc3c1C2=O (stereo not shown) , the value recorded as its concentration from which a degradation effect on ALK protein is shown is 0.5

Quick note, concentration from which a degradation effect on ALK protein is shown for COc1cc(N2CCC(N3CCN(CCCCCCCC#Cc4cccc5c4CN(C4CCC(=O)NC4=O)C5=O)CC3)CC2)ccc1Nc1ncc(Cl)c(Nc2ccccc2P(C)(C)=O)n1 (stereo not shown) landed at 5

====

- System: SR cells (NPM-ALK, human anaplastic large cell lymphoma cells)
- method: Proliferation inhibition (IC50) in SR cells, CCK8 (WST) reagent
- Format: cell-based
- experimental.parameters: 72 h, SR cells, WST reagent, 72 hours, read-out: IC50 (half inhibitory concentration), Brigatinib series in lymphoma cell lines
parameter: pIC50
Scale: pIC50 equals -log10([C]), with [C] in mol/L.

Noted for COc1cc(N2CCC(N3CCN(CCCCCC#Cc4cccc5c4CN(C4CCC(=O)NC4=O)C5=O)CC3)CC2)ccc1Nc1ncc(Cl)c(Nc2ccccc2P(C)(C)=O)n1 (centres unmarked) : its pIC50 reads 8.92

Entry COc1cc(N2CCC(N3CCN(C(=O)NCCCCSc4cccc5c4CN(C4CCC(=O)NC4=O)C5=O)CC3)CC2)ccc1Nc1ncc(Cl)c(Nc2ccccc2P(C)(C)=O)n1 (centres unmarked) — recorded pIC50 = 9.22

For reference, reported pIC50 for COc1cc(N2CCC(N3CCN(CCCCCCCC#Cc4cccc5c4CN(C4CCC(=O)NC4=O)C5=O)CC3)CC2)ccc1Nc1ncc(Cl)c(Nc2ccccc2P(C)(C)=O)n1 (centres unmarked) stands at 8.70

Summary for this compound, COc1cc(N2CCC(N3CCN(C(=O)COCCOCCOCCOCCNc4cccc5c4CN(C4CCC(=O)NC4=O)C5=O)CC3)CC2)ccc1Nc1ncc(Cl)c(Nc2ccccc2P(C)(C)=O)n1 (centres unmarked) : pIC50 is 7.07

// pIC50 lookup, compound = COc1cc(N2CCC(N(C)CCCCSc3cccc4c3CN(C3CCC(=O)NC3=O)C4=O)CC2)ccc1Nc1ncc(Cl)c(Nc2ccccc2P(C)(C)=O)n1 (centres unmarked) , result: 9.05

====

- Test system: 293T cells overexpressing EML4-ALK G1202R
- method: Proliferation inhibition (IC50) in 293T cells overexpressing EML4-ALK G1202R
- Format: cell-based
- experimental.parameters: Homo sapiens, HEK-293T; WST reagent, 72 hours; read-out: IC50 (half inhibitory concentration) in 293T cells overexpressing EML4-ALK G1202R
- Procedure: The IC50 of the compound of the present disclosure was determined using Promega's Cell Titer Blue, Cell Titer GLO or commercially available WST reagents. […] The growth inhibition of the compounds of the present disclosure on cells was plotted by Prism Graphpad software and the IC50 of the compounds of the present disclosure was counted from it.
Exercise: state measured pIC50 for each of the compounds provided.
# reply with the number alone; pIC50 is -log10 of concentration in mol/L

Reported pIC50 ( COc1cc(N2CCC(N3CCN(C)CC3)CC2)ccc1Nc1ncc(Cl)c(Nc2ccccc2P(C)(C)=O)n1 [Brigatinib, reference compound] ) = 6.32

Reported pIC50 ( COc1cc(N2CCC(N3CCN(Cc4ccc(CSc5cccc6c5CN(C5CCC(=O)NC5=O)C6=O)cc4)CC3)CC2)ccc1Nc1ncc(Cl)c(Nc2ccccc2P(C)(C)=O)n1 (centres unmarked) ) = 7.00

The reported numbers originate from patent US12390532B2.
